Test: Toxicity liver stage against HepG2, at 10uM
Assay type: cell-based
Parameters: test concentration 10 uM, cell line HepG2-A16-CD81EGFP
Conditions: human, HepG2-A16-CD81EGFP cells; read-out: INHIBITION
QUANTITY_MEASURED: cytotoxicity at 10 µM (%)
# value in %; strip the unit string

Below are worked cases with known answers.
molecule="COc1cccc2[nH]cc(CCNC(=O)N3CCCC3CO)c12 (stereo unspecified)" observed_value=-10.1
molecule=Cc1noc(CCNC(=O)NCc2ccc(OC3CCCC3)cc2)n1 observed_value=13.2
molecule=Cc1nn(C)c(C)c1NC(=O)Nc1cccnc1N1CCCC1 observed_value=7.31
molecule=COCCN(C)C[C@H]1CC[C@@H](Cc2ccc3c(cnn3C)c2)O1 observed_value=0.255
molecule=O=C(NN1CCCc2ccccc21)c1c[nH]c(=O)[nH]1 observed_value=8.73

Read the next record carefully.
Q: Indicate the recorded cytotoxicity at 10 µM value for this molecule: Cc1ccc([C@@H]2CN(C(=O)c3ccccc3C)C[C@H]2N(C)C)cc1
Ans: -8.29

====

Test: Toxicity liver stage against HepG2, at 10uM
Assay type: cell-based
Design: test concentration 10 uM, cell line HepG2-A16-CD81EGFP
Conditions: human, HepG2-A16-CD81EGFP cells; read-out: INHIBITION
cytotoxicity at 10 µM for assorted compounds
Field format: number, assumed %, no unit text.

Solved cases below.
compound=Cc1cc(C)n2nc(CC(=O)N3CC[C@H]4NCCC[C@]4(CO)C3)nc2n1 observed_value=-0.363
compound="COc1ccc2c(c1)OCC(C(=O)NCc1nc3c(s1)CCCC3)C2 (stereo unspecified)" observed_value=-4.29
compound="CN(C)CCOCC1CN(Cc2ccsc2)Cc2nnn(C)c21 (stereo unspecified)" observed_value=14.1
compound="Cc1c(C(=O)N2CCC(O)(CN(C)C)C2)c2ccccc2n1C (stereo unspecified)" observed_value=3.49
compound=O=C(CCN1CCN(c2ccc3nncn3n2)CC1)NC1CCCC1 observed_value=-27.5

Then there is this compound:
Q: Give recorded cytotoxicity at 10 µM. COc1cccc(C(O)CN2CCN(C(=O)CCC(C)C)CC2)c1 (stereo unspecified)
Ans: -46.9

====

Assay: Toxicity liver stage against HepG2, at 10uM
Assay type: cell-based
Design: test concentration 10 uM, cell line HepG2-A16-CD81EGFP
Details: human, HepG2-A16-CD81EGFP cells; read-out: INHIBITION
Measured cytotoxicity at 10 µM of individual entries
Numbers only here, please. The scale is %.

For orientation, consider the following solved cases.
compound=Cc1ccnc(NS(=O)(=O)c2cc(C(N)=O)n(C)c2)c1 quantity_measured="cytotoxicity at 10 µM" observed_value=0.814
compound=CNC(=O)c1cccc(NC(=O)NCc2ccccc2)c1C quantity_measured="cytotoxicity at 10 µM" observed_value=-1.67
compound="CCOCC(=O)N1CCOCC2(CCN(c3ncccn3)C2)C1 (centres undefined)" quantity_measured="cytotoxicity at 10 µM" observed_value=-2.22
compound=O=c1c(NCCO)c(N2CCN(c3ccccc3)CC2)c1=O quantity_measured="cytotoxicity at 10 µM" observed_value=-6.95
compound="CC(C(=O)N1CCN(C)CC1)n1cc(Br)cn1 (centres undefined)" quantity_measured="cytotoxicity at 10 µM" observed_value=3.6
compound="NC1CC(C(F)(F)F)=NC=C1c1ccccc1 (centres undefined)" quantity_measured="cytotoxicity at 10 µM" observed_value=-9.16
compound=CN(Cc1noc2c1CCCC2)C(=O)Cn1cnc2ccccc2c1=O quantity_measured="cytotoxicity at 10 µM" observed_value=-52.4
compound=Cc1noc(C)c1CN1C[C@@H](C(=O)O)[C@H](c2ccccn2)C1 quantity_measured="cytotoxicity at 10 µM" observed_value=-6.9
compound=CC(=O)Nc1ncc(S(=O)(=O)Nc2cccc(O)c2)s1 quantity_measured="cytotoxicity at 10 µM" observed_value=8.49
compound=Cn1c(=O)[nH]c(=O)n2c(CC(=O)NCc3ccccc3)cnc12 quantity_measured="cytotoxicity at 10 µM" observed_value=7.77

Q: Find the measured cytotoxicity at 10 µM of CC(C)(C)C(O)CN1CCN(Cc2nccn2CC(F)(F)F)CC1 (centres undefined) and report it.
Ans: 4.77

Q: Report cytotoxicity at 10 µM, nothing else, for this compound: CC(C)CN1CCCn2nc(CNC(=O)c3cccnc3O)cc2C1
Ans: -14.4

Q: Look up cytotoxicity at 10 µM of Cc1nn(C)c(N(C)C)c1CNCc1ccnn1C and report it.
Ans: -3.35

Q: For O=C(Cc1cccs1)N1C[C@H]2CN(CC3CCCO3)CC[C@H]2C1 (some centres undefined) , write its cytotoxicity at 10 µM.
Ans: 4.96

Q: Note down cytotoxicity at 10 µM recorded for CCOc1ccccc1-c1noc(CN2CCCC(O)C2)n1 (centres undefined)
Ans: -3.85

Q: Please supply the value of reported cytotoxicity at 10 µM for the item Cc1ccc(Cl)cc1NC(=O)C1CSc2ncc(C)c(=O)n2C1 (centres undefined)
Ans: 1.42

Q: Indicate the recorded cytotoxicity at 10 µM value for this compound: CNC(=O)CNC(=O)c1ccc(-c2scnc2C)nc1
Ans: -4.26

Q: Annotate the compound COc1ccccc1-c1ncc(CN2C[C@@H](N(C)C)[C@H](C(C)C)C2)s1 with its measured cytotoxicity at 10 µM.
Ans: -12.3

Q: Give the reported cytotoxicity at 10 µM for this compound. COc1ccc(CN(C)C(=O)Cc2c(C)nn(C)c2C)cc1F
Ans: 17

Q: Output measured cytotoxicity at 10 µM for this item: CCS(=O)(=O)NCC(=O)Nc1cc(CC(C)(C)C)n[nH]1
Ans: 5.01

Q: Please supply the value of reported cytotoxicity at 10 µM for the item O=C(c1ccsc1)N1C[C@@H]2CCN(C(=O)c3cscn3)[C@@H]2C1
Ans: 0.0861

====

Experiment: Toxicity liver stage against HepG2, at 10uM
Assay type: cell-based
Parameters: test concentration 10 uM, cell line HepG2-A16-CD81EGFP
Details: human, HepG2-A16-CD81EGFP cells; read-out: INHIBITION
QUANTITY_MEASURED: cytotoxicity at 10 µM (%)
Give your result in % as a bare value.

As a guide, the following entries are already answered.
molecule=CCN(CC)CCCNC(=O)Nc1c(C)cccc1C(C)C observed_value=-0.847
molecule=Cc1cc(C)c(C#N)c(NCCn2cnnc2C(C)C)n1 observed_value=10.2
molecule=CCCC(=O)Nc1cnn(CC(=O)Nc2ccc(SC)cc2)c1 observed_value=-8.81
molecule=c1cc(-c2noc([C@@H]3CCCN3C3CCC3)n2)cc(N2CCCC2)n1 observed_value=5.94
molecule=CC(=O)Nc1cccc(OCCNC(=O)N(C)Cc2ccncc2)c1 observed_value=4.77
molecule="CN(CCc1ccncc1)C(=O)C1CSCN1C(=O)C(C)(C)C (configuration not stated)" observed_value=-8.2
molecule=COc1ccc(C(=O)CCc2nc(C3CC3)no2)cc1 observed_value=-2.31
molecule="CC(Cn1cccn1)NCC(=O)NC1CCOCC1 (configuration not stated)" observed_value=2.51

Now consider the entry below.
Q: Supply reported cytotoxicity at 10 µM belonging to this molecule: CCN(CC)CC[C@H]1CN(C(=O)C(C)(C)C)CC[C@H]1CC(=O)O
Ans: 0.0915

====

List of cytotoxicity at 10 µM values.
Assay: Toxicity liver stage against HepG2, at 10uM
Format: cell-based
Parameters: test concentration 10 uM, cell line HepG2-A16-CD81EGFP
Conditions: human, HepG2-A16-CD81EGFP cells; read-out: INHIBITION
Your answer should be a plain number; it is taken to be in %.

compound=CC(C)OCCn1nnnc1Cc1ccc(Br)cc1 quantity_measured="cytotoxicity at 10 µM" observed_value=-5.58

Q: Quote cytotoxicity at 10 µM reported for O=C([C@H]1C[C@H]2CN(c3ncc(F)cn3)C[C@@H]1O2)N1CCOCC1 please.
Ans: -109

Q: Please give measured cytotoxicity at 10 µM of the following entry: COc1cc(C)sc1C(=O)NCCNc1ccccc1
Ans: -7.64

====

Experiment: Toxicity liver stage against HepG2, at 10uM
Assay type: cell-based
Parameters: test concentration 10 uM, cell line HepG2-A16-CD81EGFP
Conditions: human, HepG2-A16-CD81EGFP cells; read-out: INHIBITION
This listing pairs compounds with measured cytotoxicity at 10 µM.
Quick note: give the figure in %, leave out the unit.

compound=CN1CCc2cc(C(=O)N(C)C)c(NCC3CC3)nc2CC1 observed_value=7.8
compound="COc1ccc(CN2CCCC(Cn3nc(C)nc3C)C2)cc1F (configuration not stated)" observed_value=-0.409
compound="CN(C)CC(C)(O)CNC(=O)Nc1sc2ccccc2c1Cl (configuration not stated)" observed_value=11.5
compound="c1coc(CN2CCCC3(COCCN(Cc4c[nH]nn4)C3)C2)c1 (configuration not stated)" observed_value=-12.2
compound=Cc1cc(C(=O)N2CCc3c(ncn3CCc3ccccc3)C2)on1 observed_value=-3.58

Q: Entry Cn1cccc1C(=O)N1Cc2c(CN3CCCCC3)nn(C)c2C1 needs its cytotoxicity at 10 µM filled in; supply it.
Ans: 1.25

Q: Supply recorded cytotoxicity at 10 µM for CCc1nc(C2CCCN2CCc2cccs2)no1 (configuration not stated) here.
Ans: -108

Q: Tell me measured cytotoxicity at 10 µM for C[C@H](c1ccc(F)cc1)n1c(C2CCC2)n[nH]c1=O please.
Ans: -5.95

Q: Name the recorded cytotoxicity at 10 µM of the compound listed here: O=C(N[C@@H]1CN(Cc2c[nH]nc2-c2ccccc2)C[C@H]1O)c1cc[nH]n1
Ans: 2.8

Q: Provide one value: measured cytotoxicity at 10 µM of Cn1cc(C(=O)N2CCCCC2CCc2ccc(O)cc2)cn1 (configuration not stated)
Ans: -2.3

Q: Answer with the recorded cytotoxicity at 10 µM for the compound listed here: Cc1ccc2c(c1)C1(CCNCC1)CN2C(=O)C(C)C
Ans: -77

Q: Name the recorded cytotoxicity at 10 µM of the compound listed here: Cn1nc2c(cc1=O)CN(c1nc3ccccc3s1)CC2
Ans: 2.89
